biological target: UniProtKB Q9Y253; assay type: biochemical; details: read-out: apparent Kd; G opposite T (mispair), B sequence
Sequence (Q9Y253 whole entry): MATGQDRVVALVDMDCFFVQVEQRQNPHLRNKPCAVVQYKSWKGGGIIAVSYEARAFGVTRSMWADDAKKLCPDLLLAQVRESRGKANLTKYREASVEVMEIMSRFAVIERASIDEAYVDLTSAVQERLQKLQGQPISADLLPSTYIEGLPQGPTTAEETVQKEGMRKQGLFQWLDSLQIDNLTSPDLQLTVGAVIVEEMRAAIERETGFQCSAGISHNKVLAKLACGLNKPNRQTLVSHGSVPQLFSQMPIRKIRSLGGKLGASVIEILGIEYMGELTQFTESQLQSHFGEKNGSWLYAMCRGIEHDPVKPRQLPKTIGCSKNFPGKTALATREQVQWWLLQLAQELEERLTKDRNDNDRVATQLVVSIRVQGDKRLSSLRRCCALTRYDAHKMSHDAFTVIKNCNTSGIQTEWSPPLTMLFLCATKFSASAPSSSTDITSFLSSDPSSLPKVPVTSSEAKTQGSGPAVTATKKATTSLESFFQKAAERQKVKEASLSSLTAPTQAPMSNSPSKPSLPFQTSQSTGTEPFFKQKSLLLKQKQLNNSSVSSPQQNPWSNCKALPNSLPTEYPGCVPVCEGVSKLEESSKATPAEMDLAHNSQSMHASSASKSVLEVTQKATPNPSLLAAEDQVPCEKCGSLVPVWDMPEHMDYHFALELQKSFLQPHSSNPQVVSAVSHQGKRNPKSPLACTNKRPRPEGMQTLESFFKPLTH
Measured pKd, listed per entry for reference.
Conceptually, pKd converts a concentration in mol/L into minus its log10.

> print(dat)
                                   compound   subject.of.test  numeric.value
1  Nc1nc2c(ncn2C2CC(O)C(COP(=O)(O)OP(=O)(O)C(F)P(=O)(O)O)O2)c(=O)[nH]1 (centres unmarked)  UniProtKB Q9Y253           3.43

Req: What pKd appears in the records for this compound with UniProtKB Q9Y253? Nc1nc2c(ncn2[C@H]2C[C@H](O)[C@@H](COP(=O)(O)OP(=O)(O)OP(=O)(O)O)O2)c(=O)[nH]1
Resp: 4.52
